Here, each record is paired with measured pIC50 data.
molecular target: TNF-α converting enzyme (TACE) (Homo sapiens, UniProt P78536); experiment: TACE inhibition (fluorescent peptidyl substrate); assay type: biochemical; conditions: Table 9; read-out: TACE IC50
Sequence (P78536 215-824, species assumed): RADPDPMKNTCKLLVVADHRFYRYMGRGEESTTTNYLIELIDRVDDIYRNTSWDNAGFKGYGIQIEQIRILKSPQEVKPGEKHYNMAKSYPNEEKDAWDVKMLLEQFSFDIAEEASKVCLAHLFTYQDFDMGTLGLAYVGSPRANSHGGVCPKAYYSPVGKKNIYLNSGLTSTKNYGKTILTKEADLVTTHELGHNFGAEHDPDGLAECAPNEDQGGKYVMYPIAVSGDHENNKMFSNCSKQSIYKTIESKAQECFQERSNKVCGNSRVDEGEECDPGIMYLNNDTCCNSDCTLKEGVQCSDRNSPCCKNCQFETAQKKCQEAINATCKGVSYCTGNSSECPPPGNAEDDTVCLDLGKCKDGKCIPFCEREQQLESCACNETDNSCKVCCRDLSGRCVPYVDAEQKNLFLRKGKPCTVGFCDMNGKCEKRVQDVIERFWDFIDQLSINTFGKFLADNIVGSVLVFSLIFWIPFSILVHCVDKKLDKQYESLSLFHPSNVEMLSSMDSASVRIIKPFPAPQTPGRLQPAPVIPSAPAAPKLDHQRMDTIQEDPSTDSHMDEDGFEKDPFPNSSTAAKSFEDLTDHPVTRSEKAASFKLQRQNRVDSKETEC
pIC50: −log10 of the molar value.
Quantity kind: pIC50

* CC#CCOc1ccc(S(=O)(=O)N2CCS(=O)(=O)C(C)(C)[C@@H]2C(=O)NO)cc1 | 7.62
* CC#CCOc1ccc(S(=O)(=O)N2CC[S+]([O-])C(C)(C)C2C(=O)NO)cc1 (single isomer, unassigned) [Example 256] | 7.60
* CCCCC#CCOc1ccc(S(=O)(=O)N2CCSC(C)(C)C2C(=O)NO)cc1 (stereo not shown) | 7.64
* CC#CCOc1ccc(S(=O)(=O)N2CC[S+]([O-])C(C)(C)C2C(=O)NO)cc1 (single isomer, unassigned) [Example 255] | 7.62
